Listed below: pIC50 values for each entry.
- subject.of.test: JMJD2C (Homo sapiens (Human))
- Sequence (Q9H3R0 2-372): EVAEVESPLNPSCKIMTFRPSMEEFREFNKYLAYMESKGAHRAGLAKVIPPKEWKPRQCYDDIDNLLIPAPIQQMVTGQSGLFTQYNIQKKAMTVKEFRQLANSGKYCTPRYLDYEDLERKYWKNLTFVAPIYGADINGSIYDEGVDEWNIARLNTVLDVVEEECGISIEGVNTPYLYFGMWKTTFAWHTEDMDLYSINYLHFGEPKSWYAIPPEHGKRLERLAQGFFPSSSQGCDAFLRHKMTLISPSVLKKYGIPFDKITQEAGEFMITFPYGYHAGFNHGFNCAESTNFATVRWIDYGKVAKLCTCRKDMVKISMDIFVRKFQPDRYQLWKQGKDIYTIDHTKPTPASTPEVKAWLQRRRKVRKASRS
- test.summary: In vitro enzyme inhibition assay for JMJD2C activity (TR-FRET)
- Type: biochemical
- conditions.used: Table 5; one class given per A and B pair
pIC50: −log10 of the molar value.

{"compound": "Cc1cc(OCC(F)(F)F)ccc1-c1ccc2c(c1)CCN[C@@H]2CNc1cnccc1C(=O)O [Example 2A]", "measured": "5.00 to 6.00"}
{"compound": "Cc1ccc(N(C)c2ccc3c(c2)CCN[C@H]3CNc2cnccc2C(=O)O)cc1 [Example 1B]", "measured": "6.00 to 7.00"}
{"compound": "CCc1ccccc1-c1ccc2c(c1)CCN(C)[C@H]2CNc1cnccc1C(=O)O [Example 15A]", "measured": "6.00 to 7.00"}

Name the recorded pIC50 for CC(C)c1ccccc1-c1ccc2c(c1)CCN(C)[C@H]2CNc1cnccc1C(=O)O [Example 16A] .
5.00 to 6.00

Name the recorded pIC50 for Cc1cc(OCC(F)(F)F)ccc1-c1ccc2c(c1)CN[C@H]2CNc1cnccc1C(=O)O [Example 7B] .
5.00 to 6.00

Name the recorded pIC50 for Cc1ccccc1-c1ccc2c(c1)CCN(C)[C@H]2CNc1cnccc1C(=O)O [Example 12A] .
5.00 to 6.00

Name the recorded pIC50 for CCCc1ccc(N(C)c2ccc3c(c2)CN(C)[C@@H]3CNc2cnccc2C(=O)O)cc1 [Example 20B] .
6.00 to 7.00

Name the recorded pIC50 for Cc1ccccc1-c1ccc2c(c1)CCN[C@@H]2CNc1cnccc1C(=O)O [Example 8B] .
5.00 to 6.00

====

Listed below: pIC50 values for each entry.
- subject.of.test: JMJD2C (Homo sapiens (Human))
- test.summary: In vitro enzyme inhibition assay for JMJD2C activity (TR-FRET)
- Assay type: biochemical
- conditions.used: Table 5; one class given per A and B pair
- From the text: This assay determines the ability of a test compound to inhibit JMJD2C demethylase activity. Baculovirus expressed JMJD2C (GenBank Accession #BC143571, AA 2-372) was purchased from BPS Bioscience (Cat#50105). […]
pIC50: −log10 of the molar value.

{"compound": "Cc1ccc(N(C)c2ccc3c(c2)CN(C)[C@H]3CNc2cnccc2C(=O)O)cc1 [Example 18A]", "measured": "6.00 to 7.00"}
{"compound": "Cc1cccc(C)c1-c1ccc2c(c1)CCN(C)[C@H]2CNc1cnccc1C(=O)O [Example 17A]", "measured": "5.00 to 6.00"}
{"compound": "CCc1ccc(N(C)c2ccc3c(c2)CCN[C@@H]3CNc2cnccc2C(=O)O)cc1 [Example 10B]", "measured": "5.00 to 6.00"}
{"compound": "Cc1cc(OCC(F)(F)F)ccc1-c1ccc2c(c1)CCN[C@H]2CNc1cnccc1C(=O)O", "measured": "5.00 to 6.00"}

Name the recorded pIC50 for CC(C)c1ccc(N(C)c2ccc3c(c2)CN[C@@H]3CNc2cnccc2C(=O)O)cc1 .
5.00 to 6.00

Name the recorded pIC50 for CCc1ccc(N(C)c2ccc3c(c2)CCN(C)[C@H]3CNc2cnccc2C(=O)O)cc1 [Example 13A] .
6.00 to 7.00

Name the recorded pIC50 for Cc1cc(OCC2CC2)ccc1-c1ccc2c(c1)CCN[C@H]2CNc1cnccc1C(=O)O .
6.00 to 7.00

Name the recorded pIC50 for Cc1ccccc1-c1ccc2c(c1)CN(C)[C@H]2CNc1cnccc1C(=O)O [Example 21A] .
6.00 to 7.00

Name the recorded pIC50 for CCc1ccccc1-c1ccc2c(c1)CCN(C)[C@@H]2CNc1cnccc1C(=O)O [Example 15B] .
6.00 to 7.00

Name the recorded pIC50 for Cc1cc(OCC2CC2)ccc1-c1ccc2c(c1)CCN[C@@H]2CNc1cnccc1C(=O)O .
6.00 to 7.00

Name the recorded pIC50 for CCc1ccccc1-c1ccc2c(c1)CCN[C@H]2CNc1cnccc1C(=O)O .
5.00 to 6.00
